experimental_details: Negative allosteric modulator activity at CB1 receptor (unknown origin) expressed in HEK293 cell membrane assessed as reduction in CP55,940-induced [35S]GTPgammaS binding by measuring EC50 of CP55,940 at 3.2 uM incubated for 60 mins by liquid scintillation counting analysis (Rvb = 4.7 nM)
attribute_measured: EC50

Consider the molecule shown here: `CCCCCCc1c(C(=O)NCCc2ccc(N=[N+]=[N-])cc2)[nH]c2ccc(Cl)cc12` What is its recorded EC50?
2.1 nM

Returns the measured EC50 for the input molecule. Input: `CN(C)c1ccc(CCNC(=O)c2[nH]c3ccc(Cl)cc3c2CN=[N+]=[N-])cc1`
1.2 nM

# lookup: EC50 of `CCc1c(C(=O)NCCc2ccc(C(=O)c3ccccc3)cc2)[nH]c2ccc(Cl)cc12`
2.7 nM

Quick check: EC50 of `CCCCCc1c(C(=O)NCCc2ccc(C(=O)c3ccccc3)cc2)[nH]c2ccc(Cl)cc12` ?
7.9 nM
